experiment: in vitro; conditions: rat, plasma, Surrogate Activity based Plasma stability t½
Bridge positions count the residues as written; N and C are the ends. Square brackets hold non-standard residues; d marks the D form. Peptide text beside a SMILES is read from it. * marks the point of attachment. pGlu = O=C1CC[C@@H](C(=O)O)N1; NHPhenethyl = c1ccc(CCN*)cc1; Nle = CCCC[C@H](N)C(=O)O; Aib = CC(C)(N)C(=O)O
attribute measured: log10 of half-life (log10 of the value in min)
For clarity, the numbers are log10 values of half-life expressed in min.

Worked set:
Lookup: Give its log10 of half-life value. Item: CCCC[C@@H]1NC(=O)[C@@H]2CCCN2C(=O)[C@@H](NC(=O)[C@H](CCCCN)NC(=O)C(C)(C)NC(=O)[C@H](CO)NC(=O)[C@H](CC(C)C)NC(=O)[C@H](CCCNC(=N)N)NC(=O)[C@@H]2CCCN2C(=O)[C@H](CCCNC(=N)N)NC(=O)[C@@H]2CCC(=O)N2)CSSC[C@@H](C(=O)NCCc2ccccc2)NC1=O [Example 15] ([pGlu]RPRLS[Aib]KCP[Nle]C-NHPhenethyl; disulfide 9-12)
Found: 1.61

Lookup: Now try CCCC[C@@H]1NC(=O)[C@@H]2CCCN2C(=O)[C@@H](NC(=O)[C@H](CCCCN)NC(=O)[C@H](Cc2c[nH]cn2)NC(=O)[C@H](CO)NC(=O)[C@H](CC(C)C)NC(=O)[C@H](CCCNC(=N)N)NC(=O)[C@@H]2CCCN2C(=O)[C@H](CCCNC(=N)N)NC(=O)[C@@H]2CCC(=O)N2)CSSC[C@@H](C(=O)N[C@@H](Cc2ccccc2)C(=O)O)NC1=O [Example 14, pE-R-P-R-L-S-H-K-C*-P-Nle-C*-F-OH] ([pGlu]RPRLSHKCP[Nle]CF-OH; disulfide 9-12) .
Found: 1.46

Lookup: Try this molecule next: CCCC[C@@H]1NC(=O)[C@@H]2CCCN2C(=O)[C@@H](NC(=O)[C@H](CCCCN)NC(=O)[C@H](Cc2c[nH]cn2)NC(=O)[C@@H](C)NC(=O)[C@H](CC(C)C)NC(=O)[C@H](CCCNC(=N)N)NC(=O)[C@@H]2CCCN2C(=O)[C@H](CCCNC(=N)N)NC(=O)[C@@H]2CCC(=O)N2)CSSC[C@@H](C(=O)N[C@H](Cc2ccccc2)C(=O)O)NC1=O [Example 17, pE-R-P-R-L-a-H-K-C*-P-Nle-C*-f-OH] ([pGlu]RPRL[dA]HKCP[Nle]C[dF]-OH; disulfide 9-12)
Found: 2.96

More entries:
Lookup: Endpoint output: log10 of half-life of CCCC[C@@H]1NC(=O)[C@@H]2CCCN2C(=O)CNC(=O)[C@H](CCCCN)NC(=O)[C@H](Cc2c[nH]cn2)NC(=O)[C@H](CO)NC(=O)[C@@H](NC(=O)[C@H](CCCNC(=N)N)NC(=O)[C@@H]2CCCN2C(=O)[C@H](CCCNC(=N)N)NC(=O)[C@@H]2CCC(=O)N2)CSSC[C@@H](C(=O)N[C@@H](Cc2ccccc2)C(=O)O)NC1=O [Example 1, pE-R-P-R-C*-S-H-K-G-P-Nle-C*-F-OH] ([pGlu]RPRCSHKGP[Nle]CF-OH; disulfide 5-12) . Value?
Found: 2.10

Lookup: Next up: CCCC[C@@H]1NC(=O)[C@@H]2CCCN2C(=O)CNC(=O)[C@H](CCCCN)NC(=O)[C@@H](NC(=O)[C@H](CO)NC(=O)[C@H](CC(C)C)NC(=O)[C@H](CCCNC(=N)N)NC(=O)[C@@H]2CCCN2C(=O)[C@H](CCCNC(=N)N)NC(=O)[C@@H]2CCC(=O)N2)CSSC[C@@H](C(=O)N[C@@H](Cc2ccccc2)C(=O)O)NC1=O [Example 3, pE-R-P-R-L-S-C*-K-G-P-Nle-C*-F-OH] ([pGlu]RPRLSCKGP[Nle]CF-OH; disulfide 7-12)
Found: 1.41
